- Target of assay: erythrocyte KCa3.1 channels (Homo sapiens (Human), UniProt O15554)
- Test details: Erythrocyte KCa3.1 assay
- Assay type: cell-based
- Details: human erythrocytes, A23187-activated KCa3.1; read-out: RBC K (in vitro) Human IC50 (μM) Potency category
Readout name: IC50

Solved cases (3 shown):
- Molecule: "COC(=O)N(C[C@H]1CCCN1C)C1(c2ccc(F)c(C(F)(F)F)c2)CC1"
  IC50: "< 0.3 µM"
- Molecule: "CN1CCC1CN(CC(C)(C)O)C1(c2ccc(F)c(C(F)(F)F)c2)CC1 (centres unmarked)"
  IC50: "< 1 µM"
- Molecule: "CC(C)(N)CN(C1(c2ccc(F)c(C(F)(F)F)c2)CC1)S(C)(=O)=O"
  IC50: "< 0.3 µM"

Request: Which measured IC50 value corresponds to `COC(=O)N(C[C@H]1CCCN1)C1(c2cc(F)cc(C(F)(F)F)c2)CCC1` ?
Response: < 0.3 µM

Request: Which measured IC50 value corresponds to `CC(C)(N)CN(C(=O)C1CC1)C1(c2ccc(F)c(C(F)(F)F)c2)CC1` ?
Response: < 1 µM

---

- Target of assay: UniProtKB O15554
- Test details: Erythrocyte KCa3.1 assay
- Format: cell-based
- Details: human erythrocytes, A23187-activated KCa3.1; read-out: RBC K (in vitro) Human IC50 (μM) Potency category
Readout name: IC50

Request: Which measured IC50 value corresponds to `COC(=O)N(C[C@@H]1CCCN1)C1(c2cc(Cl)ccc2F)CCC1` ?
Response: < 1 µM

Request: Which measured IC50 value corresponds to `O=C(OC1CC1)N(C[C@@H]1CCCN1)C1(c2ccc(F)c(C(F)(F)F)c2)CC1` ?
Response: < 0.3 µM

Request: Which measured IC50 value corresponds to `Fc1ccc(C2(NC[C@H]3CCCN3)CCC2)cc1C1CC1` ?
Response: < 1 µM

Request: Which measured IC50 value corresponds to `COC(=O)N(CC(C)(C)N)C1(c2cccc(OC(F)(F)F)c2)CCC1` ?
Response: < 0.3 µM

Request: Which measured IC50 value corresponds to `CCOC(=O)N(CC(C)(C)N)C1(c2ccc(F)c(C(F)(F)F)c2)CC1` ?
Response: < 0.3 µM

Request: Which measured IC50 value corresponds to `CS(=O)(=O)N(C[C@@H]1CCCN1)C1(c2ccc(F)c(C(F)(F)F)c2)CC1` ?
Response: < 1 µM

Request: Which measured IC50 value corresponds to `CCOC(=O)N(C[C@H]1CCCN1)C1(c2ccc(F)c(C(F)(F)F)c2)CC1` ?
Response: < 0.3 µM

Request: Which measured IC50 value corresponds to `COC(=O)N(C[C@H]1CCCN1)C1(c2ccc(F)c(OC(F)(F)F)c2)CC1` ?
Response: < 1 µM

Request: Which measured IC50 value corresponds to `Fc1ccc(C2(NC[C@@H]3CCCN3)CCC2)cc1C(F)(F)F` ?
Response: < 0.3 µM

Request: Which measured IC50 value corresponds to `CCOC(=O)N(C[C@@H]1CCCN1)C1(c2ccc(F)c(C(F)(F)F)c2)CC1` ?
Response: < 0.3 µM

---

- Target of assay: erythrocyte KCa3.1 channels (Homo sapiens (Human), UniProt O15554)
- Test details: Erythrocyte KCa3.1 assay
- Type: cell-based
- Details: human erythrocytes, A23187-activated KCa3.1; read-out: RBC K (in vitro) Human IC50 (μM) Potency category
A collection of molecules and their measured IC50

- Molecule: "CC(C)(N)CN(CC1CC1)C1(c2ccc(F)c(C(F)(F)F)c2)CC1"
  IC50: "< 0.3 µM"
- Molecule: "CS(=O)(=O)N(CC1(N)CC1)C1(c2ccc(F)c(C(F)(F)F)c2)CC1"
  IC50: "< 1 µM"
- Molecule: "COC(=O)N(C[C@@H]1CCN1)C1(c2ccc(F)c(C(F)(F)F)c2)CC1"
  IC50: "< 1 µM"
- Molecule: "COC(=O)N(C[C@@H]1CCCN1)C1(c2ccc(F)c(C(F)(F)F)c2)CCC1"
  IC50: "< 0.3 µM"

Request: Which measured IC50 value corresponds to `COC(=O)N(CC(C)(C)N)C1(c2ccc(F)c(C(F)(F)F)c2)CCC1` ?
Response: < 0.3 µM

Request: Which measured IC50 value corresponds to `Fc1cc(C(F)(F)F)cc(C2(NC[C@H]3CCCN3)CCC2)c1` ?
Response: < 1 µM

Request: Which measured IC50 value corresponds to `CC(C)(N)CN(C1CCC1)C1(c2cccc(C(F)(F)F)c2)CC1` ?
Response: < 0.3 µM

Request: Which measured IC50 value corresponds to `COC(=O)N(CC(C)(C)N)C1(c2cccc(Br)c2)CC1` ?
Response: < 1 µM

Request: Which measured IC50 value corresponds to `COC(=O)N(CC(C)(C)N)C1(c2cccc(Cl)c2)CC1` ?
Response: < 1 µM

Request: Which measured IC50 value corresponds to `COC(=O)N(C[C@@]1(C)CCCN1)C1(c2ccc(F)c(C(F)(F)F)c2)CC1` ?
Response: < 0.3 µM

Request: Which measured IC50 value corresponds to `COC(=O)N(CC(C)(C)NO)C1(c2ccc(F)c(C(F)(F)F)c2)CC1` ?
Response: < 0.3 µM

Reference for the values: patent US20240034717A1
